Cited source: PubChem BioAssay AID1845210

Tested on: NCI-H226 complex tumor spheroids, viability
Experiment: Anticancer human tumor NCI-H226 cell line growth inhibition;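 also: spheroids exposed to compound for 7 days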
Conditions: second compound 0.0949 µM; first compound 10 µM; hits give low values
Please respond with Fulfilled when measured viability, T/C is strictly beneath 30%, and with Not fulfilled in all other cases.

Worked examples follow.
>  <compound>
[2H]c1nc(C)nc([2H])c1-c1cc(NC[C@@H](C)c2cccc3c(C(=O)NC)ccnc23)ncn1 + CC[C@@]1(O)C(=O)OCc2c1cc1n(c2=O)Cc2cc3c(CN(C)C)c(O)ccc3nc2-1

>  <groupLabel>
Not fulfilled

$$$$
>  <compound>
CC(C)n1c(=O)n(C)c2cnc3cc(F)c(-c4ccc(OCCCN5CCCCC5)nc4)cc3c21 + CC[C@@]1(O)C(=O)OCc2c1cc1n(c2=O)Cc2cc3c(CN(C)C)c(O)ccc3nc2-1

>  <groupLabel>
Fulfilled

$$$$
>  <compound>
CC1COCCN1c1cc(-c2ccnn2C)c2ccnc(-c3ccn[nH]3)c2n1 (stereo unspecified) + CC[C@@]1(O)C(=O)OCc2c1cc1n(c2=O)Cc2cc3c(CN(C)C)c(O)ccc3nc2-1

>  <groupLabel>
Not fulfilled

$$$$
>  <compound>
Cc1cc(C)c(CNC(=O)c2cc(-c3ccc(CN4CCOCC4)cc3)cc3c2cnn3C2CCCC2)c(=O)[nH]1 + CC[C@@]1(O)C(=O)OCc2c1cc1n(c2=O)Cc2cc3c(CN(C)C)c(O)ccc3nc2-1

>  <groupLabel>
Not fulfilled

$$$$

Just wondering, is viability, T/C of COc1cc(C)[nH]c(=O)c1CN1CCc2c(Cl)cc(C(OC)C3COC3)c(Cl)c2C1=O (stereo unspecified) + CC[C@@]1(O)C(=O)OCc2c1cc1n(c2=O)Cc2cc3c(CN(C)C)c(O)ccc3nc2-1 below 30%? Not fulfilled
